Source listed as the Human Domainome abundance scans (Beltran et al. 2025).

B1: POU domain, class 3, transcription factor 3, residues 408 to 463; numbered along this chain, P20264 (parent)
chain: KKRTSIEVSVKGALESHFLKCPKPSAQEITNLADSLQLEKEVVRVWFCNRRQKEKR

Variants of: B1
Assay: abundance fitness (aPCA) (normalised: wild type 0, dead -1); higher = more abundant; growth selection in yeast, the domain comes from the species named
Settings: Homo sapiens
# if value of abundance fitness reaches -0.2, tag y; if it stays below, tag n

Here's what some known entries look like.
KKRTSIEVSVKGALESHFLKCPKPSQQEITNLADSLQLEKEVVRVWFCNRRQKEKR [A26Q] | y
KKRTSIEVSVKGALESHFLKCPKPSAQEITNLADSLQLEKEVVRVWFCNRRQKEKV [R56V] | y
KKRTSIEVSVKRALESHFLKCPKPSAQEITNLADSLQLEKEVVRVWFCNRRQKEKR [G12R] | y
KKRTSIEVSVKGALESHFLKCPKPSAQEIANLADSLQLEKEVVRVWFCNRRQKEKR [T30A] | y
KKRTSIEVIVKGALESHFLKCPKPSAQEITNLADSLQLEKEVVRVWFCNRRQKEKR [S9I] | n
KKRTSILVSVKGALESHFLKCPKPSAQEITNLADSLQLEKEVVRVWFCNRRQKEKR [E7L] | y
KKRTSIEVSVKGALESHFLKCPKPMAQEITNLADSLQLEKEVVRVWFCNRRQKEKR [S25M] | n
KKRWSIEVSVKGALESHFLKCPKPSAQEITNLADSLQLEKEVVRVWFCNRRQKEKR [T4W] | n
KKRTSIEVSVKGALESHFLKCPKPSAQEITNLADILQLEKEVVRVWFCNRRQKEKR [S35I] | y
KKRTSIEVSVKGALESHFLKCPKPSAQEITNLADSLQLEKEVVRVWFCNRRQKEKC [R56C] | n

abundance fitness >= -0.2 for KKRTSIEVSVKGALESHFLKCPKPSAQEIHNLADSLQLEKEVVRVWFCNRRQKEKR [T30H] ?
y
